This collection of values is drawn from the supplement of paper PMC10201428.

B1: library; a variant is named by its letters at N, in order (parent)
chain: ACATTTGTTGATACAACCATAAAATGATAATTACACCCATAAATTGATAATTATCACACCCANNNNNNNNNNNNNNCTCTGATCATAGTCAGACCAACATTGCTACGACCCGTATTCGCACCGACAC

# Variants of: B1
# test_method_notes: relative integration efficiency (T-RL orientation) vs wild-type transposon end (log2 (normalized fold change)); transposon end mutated: right end (5 bp flank + 75 bp right end); higher = more efficient transposition
# test_settings: with VchCAST RNA-guided transposition machinery (E. coli BL21(DE3) host, lacZ target)
Label Yes for high-side relative integration efficiency (log2) (at or above -0.2) and No for low-side relative integration efficiency (log2) (below it).

Quick check, relative integration efficiency (log2) >= -0.2? ATTTAACTATAACG T44C
No

Repeat with TAAATTGACATTGC
Yes

One more variant: TAAATTGATATGTA C77A
Yes

Another: TAAATTGATATTGC G7A
Yes

Entry to check: TAAATTGATATTGC A13T
Yes

Entry TAAATTGATATTGC A49G please
No

Item: TAAATTGAGCGGGC
Yes

And the next one, TAAATTGATATTGC T40C ?
No

Okay, and TAAATTGATATTGC T52A ?
Yes

Repeat with ATTTAACTATAACG A58T
No

Entry TAAATTGATATTGC A35T please
No
